molecular target: Transient receptor potential cation channel subfamily A member 1 (Rattus norvegicus); assay: Agonist activity at rat recombinant TRPA1 overexpressed in HEK293 cells assessed as induction of intracellular calcium influx by Fluo-4-AM dye-based spectrofluorimetric analysis
Sequence (Q6RI86 whole entry): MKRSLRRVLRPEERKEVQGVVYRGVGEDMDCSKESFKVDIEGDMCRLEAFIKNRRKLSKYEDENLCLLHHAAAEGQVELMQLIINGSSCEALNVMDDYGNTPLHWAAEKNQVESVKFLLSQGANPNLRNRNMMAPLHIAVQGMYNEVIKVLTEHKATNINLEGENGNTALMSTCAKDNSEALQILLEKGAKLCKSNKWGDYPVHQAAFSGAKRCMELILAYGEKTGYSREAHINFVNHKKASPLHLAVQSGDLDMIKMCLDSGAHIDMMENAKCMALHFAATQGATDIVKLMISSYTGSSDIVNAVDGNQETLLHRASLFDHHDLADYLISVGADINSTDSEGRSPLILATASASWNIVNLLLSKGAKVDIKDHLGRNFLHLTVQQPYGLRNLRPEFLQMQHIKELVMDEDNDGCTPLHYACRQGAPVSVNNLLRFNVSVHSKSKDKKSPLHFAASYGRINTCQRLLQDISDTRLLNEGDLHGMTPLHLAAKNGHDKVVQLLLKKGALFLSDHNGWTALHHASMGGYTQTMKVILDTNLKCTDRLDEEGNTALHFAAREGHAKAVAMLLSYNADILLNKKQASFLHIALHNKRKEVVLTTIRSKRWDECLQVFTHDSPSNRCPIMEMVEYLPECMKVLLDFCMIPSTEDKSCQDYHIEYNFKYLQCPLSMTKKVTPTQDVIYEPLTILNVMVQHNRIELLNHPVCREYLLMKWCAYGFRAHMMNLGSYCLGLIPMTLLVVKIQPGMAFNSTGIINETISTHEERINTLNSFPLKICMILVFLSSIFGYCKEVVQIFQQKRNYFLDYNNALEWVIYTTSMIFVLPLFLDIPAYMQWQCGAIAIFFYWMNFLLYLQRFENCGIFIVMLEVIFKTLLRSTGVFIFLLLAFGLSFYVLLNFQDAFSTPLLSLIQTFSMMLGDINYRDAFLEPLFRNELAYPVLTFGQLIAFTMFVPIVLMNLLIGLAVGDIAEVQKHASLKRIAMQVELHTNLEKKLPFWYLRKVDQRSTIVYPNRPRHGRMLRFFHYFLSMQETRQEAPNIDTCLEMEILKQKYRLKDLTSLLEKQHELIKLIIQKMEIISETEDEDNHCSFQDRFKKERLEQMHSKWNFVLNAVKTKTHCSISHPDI
log10 of EC50: recorded values
Form field - Quantity: EC50; Unit: µM; Scale: log10

{"given smiles": "C=C1OC(=O)c2cc(F)ccc21", "experimental system": "Transient receptor potential cation channel subfamily A member 1 (Rattus norvegicus)", "log10 of EC50": 1.51}

Now let's try a different one.
## Task Item under review: `Cc1ccc(/C=C2\OC(=O)c3ccccc32)cc1` . Reported log10 of EC50?
## Result 0.63
